assay.system: T1, recombinant biotinylated human PAR2 extracellular domain (residues 1-75), N-terminal AviTag, C-terminal Flag … (human, UniProt P55085 26-75, biotin on the AviTag (enzymatic biotinylation))
T1 construct: also called Bio-human-PAR2 ECD; human PAR2 ECD; not shown: N-terminal AviTag (Avidity LLC); C-terminal Flag and poly Histidine tags
T1 sequence (P55085 26-75): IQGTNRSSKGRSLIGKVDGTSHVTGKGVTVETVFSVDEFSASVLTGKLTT
assay.summary: HTRF competition with Par0067 IgG, scFv
Please assign label 0 whenever Fold IC50 pH 7.4 (Variant v Par0067) is at or above 20 fold, and label 1 whenever it is below.

Request: Confirm or reject: Fold IC50 pH 7.4 (Variant v Par0067) of PaB670100 scFv (scFv, V domains shown, purified scFv) VH: EVQLLESGGGLVQPGGSLRLSCAASGFTFSSYAMNWVRQAPGKGLEWVSTISYHGHHISHAHHVHGRFTISRDNSKNTLYLQMNSLRAEDTAVYYCARINNDPMDVWGQGTLVTVSS VL: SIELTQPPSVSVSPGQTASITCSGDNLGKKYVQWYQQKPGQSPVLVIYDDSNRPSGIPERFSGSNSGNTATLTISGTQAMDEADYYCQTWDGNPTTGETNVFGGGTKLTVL lies strictly below 20 fold
Result: label 1

Request: Confirm or reject: Fold IC50 pH 7.4 (Variant v Par0067) of PaB670095 scFv (scFv, V domains shown, purified scFv; also called ZZ1ODS-H05) VH: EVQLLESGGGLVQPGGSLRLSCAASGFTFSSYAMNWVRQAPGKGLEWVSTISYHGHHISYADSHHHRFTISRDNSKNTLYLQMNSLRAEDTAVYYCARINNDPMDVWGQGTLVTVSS VL: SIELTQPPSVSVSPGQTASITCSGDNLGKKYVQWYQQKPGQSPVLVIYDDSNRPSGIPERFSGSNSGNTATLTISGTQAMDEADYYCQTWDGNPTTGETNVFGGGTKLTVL lies strictly below 20 fold
Result: label 1

Request: Confirm or reject: Fold IC50 pH 7.4 (Variant v Par0067) of PaB670093 scFv (scFv, V domains shown, purified scFv; also called ZZ1ODR-H04) VH: EVQLLESGGGLVQPGGSLRLSCAASGFTFSSYAMNWVRQAPGKGLEWVSTISYHHHLISHADSVKGRFTISRDNSKNTLYLQMNSLRAEDTAVYYCARINNDPMDVWGQGTLVTVSS VL: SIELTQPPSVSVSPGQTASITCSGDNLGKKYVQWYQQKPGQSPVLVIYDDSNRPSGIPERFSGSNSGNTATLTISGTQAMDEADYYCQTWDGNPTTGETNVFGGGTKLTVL lies strictly below 20 fold
Result: label 1

Request: Confirm or reject: Fold IC50 pH 7.4 (Variant v Par0067) of PaB670105 scFv (scFv, V domains shown, purified scFv; also called ZZ1RD0-D01) VH: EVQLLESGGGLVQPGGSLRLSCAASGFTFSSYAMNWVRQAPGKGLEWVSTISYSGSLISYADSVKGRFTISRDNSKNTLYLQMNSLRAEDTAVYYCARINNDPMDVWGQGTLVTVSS VL: SIELTQPPSVSVSPGQTASITCSGDNLGKKYVQWYQQKPGQSPVLVIYDDSNRPSGIPERFSGSNSGNTATLTISGTQAMDEADYYCQHWHGNPHTGEHNHFGGGTKLTVL lies strictly below 20 fold
Result: label 0
